Parameter: IC50. Scope: all listed entries.
target: OXE receptor (Homo sapiens, UniProt Q8TDS5); assay: 5-oxo-ETE-induced calcium mobilization in human granulocytes; format: cell-based; parameters: Human granulocytes 95% neutrophils) are prepared from whole blood; endogenous in cells; host or cells: human blood granulocytes (>=95% neutrophils); conditions: Table 6; carboxyl side chain variation; readout not given, values match Ca^++; read-out: IC50
Sequence (Q8TDS5 whole entry): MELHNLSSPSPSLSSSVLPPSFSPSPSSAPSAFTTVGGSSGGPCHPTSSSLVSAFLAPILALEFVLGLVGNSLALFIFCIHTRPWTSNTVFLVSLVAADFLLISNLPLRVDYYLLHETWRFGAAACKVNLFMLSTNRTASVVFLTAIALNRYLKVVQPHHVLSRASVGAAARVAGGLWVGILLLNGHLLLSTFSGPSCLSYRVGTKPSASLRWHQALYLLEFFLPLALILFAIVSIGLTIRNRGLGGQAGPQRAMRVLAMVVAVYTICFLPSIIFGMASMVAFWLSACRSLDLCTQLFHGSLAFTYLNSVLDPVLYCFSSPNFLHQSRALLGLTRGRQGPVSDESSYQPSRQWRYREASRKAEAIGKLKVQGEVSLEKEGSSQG
// return numeric value only (unit: µM, not printed)

Would you please look over these solved cases?
# compound, IC50 / µM
measured = [
    ("CCCCCCc1cc2ccccc2n1C(=O)C[C@@H](C)CC(=O)O [Compound 3]", 0.8),
    ("CCCCCCc1cc2ccccc2n1CCCC(=O)O [Compound 16, 4-(2-Hexyl-indol-1-yl)-butyric acid]", 4.5),
    ("CCCCCCc1cc2ccccc2n1C(=O)CC(C)CC(=O)O (stereo not drawn) [Compound 2]", 0.09),
    ("CCCCCCc1cc2ccccc2n1C(=O)CCCC(=O)O [Compound 1]", 1),
]

IC50 for OXE receptor (Homo sapiens, UniProt Q8TDS5) with input CCCCCCc1cc2ccccc2n1C(=O)CC(C)(C)CC(=O)O [Compound 21] equals 13

====

Below is a list of entries, each paired with its recorded IC50 value.
molecular target: OXE receptor (Homo sapiens, UniProt Q8TDS5); assay: 5-oxo-ETE-induced calcium mobilization in human granulocytes; format: cell-based; set-up: Human granulocytes 95% neutrophils) are prepared from whole blood; endogenous in cells; host or cells: human blood granulocytes (>=95% neutrophils); conditions: 5-oxo-ETE 10 nM; human granulocytes; Table 2; read-out: IC50 (μM) Ca^++
Give the value in µM but do not write µM after it.

Record summary for CCCCCCCc1c(C(=O)CC(C)CC(=O)O)c2cc(Cl)ccc2n1C (racemic) : reported IC50 = 0.035

The reported IC50 of the compound CC(C)CCCCc1cc2cc(Cl)ccc2n1C(=O)CC(C)CC(=O)O (racemic) was 2

Documented IC50 of CCCCCCc1c(C(=O)C[C@@H](C)CC(=O)O)c2cc(Cl)ccc2n1C : 0.125

Just so you know, measured IC50 for CCCCCCc1c(C(=O)CC(C)CC(=O)O)c2ccccc2n1CC (stereo not drawn) came out at 1.6

The recorded IC50 for entry CCCCCCc1c(C(=O)CC(C)CC(=O)O)c2cc(Cl)ccc2n1C (racemic) [Compound 60] equals 0.025

// IC50 lookup, compound = CCCCCCc1c(C(=O)CC(C)CC(=O)O)c2cc(Cl)ccc2n1CC (stereo not drawn) , result: 0.35

So, CCCCCCc1c(C(=O)CCCC(=O)O)c2ccccc2n1C ? Its IC50 was 2.5

What the record says about CCCCCCc1c(C(=O)CC(C)CC(=O)O)c2cc(Cl)ccc2n1C (stereo in doubt) [Compound 107] : IC50 is 0.009

Quick note, IC50 for CCCCCCc1cc2ccccc2n1C(=O)CCCC(=O)O landed at 1

Query CCCCCCc1c(C(=O)CC(C)CC(=O)O)c2ccccc2n1C (stereo not drawn) yields IC50 of 0.34

Notebook: CC(C)CCCCc1cc2ccc(Cl)cc2n1C(=O)CC(C)CC(=O)O (stereo not drawn) , IC50 read as 1.03

Measured IC50 of CCCCCCc1c(C(=O)CC(C)CC(=O)O)c2ccc(Cl)cc2n1C (stereo not drawn) : 0.119

====

Molecular target: OXE receptor (Homo sapiens, UniProt Q8TDS5)
Experiment: 5-oxo-ETE-induced calcium mobilization in human granulocytes
Type: cell-based
Set-up: Human granulocytes 95% neutrophils) are prepared from whole blood; endogenous in cells; host or cells: human blood granulocytes (>=95% neutrophils)
Protocol: Primary Screening for Antagonist Activity: Calcium Mobilization in Human Granulocytes Human granulocytes 95% neutrophils) are prepared from whole blood using Dextran 500 to remove red blood cells, followed by centrifugation over Ficoll-Paque to remove mononuclear cells and hypotonic lysis of any remaining red blood cells. After centrifugation the granulocytes are suspended in Ca^++/Mg^++-free phosphate-buffered saline (PBS). […]
result_type: IC50 (nM)
Return type: number; implicit unit nM.

Item: CCCCCCc1c(C(=O)c2cccc(C(=O)O)c2)c2cc(Cl)ccc2n1C [Compound 108] | IC50: 65

====

target: OXE receptor (Homo sapiens); assay: 5-oxo-ETE-induced calcium mobilization in human granulocytes; format: cell-based; parameters: Human granulocytes 95% neutrophils) are prepared from whole blood; endogenous in cells; host or cells: human blood granulocytes (>=95% neutrophils); settings: Table 3; position of hexyl/hexenyl on the scaffold; readout not given, values match Ca^++; read-out: IC50
pIC50: −log10 of the molar value.
result_type: pIC50

The following molecules have reported results that may help.
# molecule, system_tested, measured_value
measured = [
    ("CCCC/C=C/c1ccc2c(ccn2C(=O)CCCC(=O)O)c1 [Compound 28]", "OXE receptor (Homo sapiens)", 5.19),
    ("CCCCCCc1cccc2ccn(C(=O)CCCC(=O)O)c12 [Compound 27]", "OXE receptor (Homo sapiens)", "< 4.52"),
]

GET /value?item= CCCCCCc1cn(C(=O)CCCC(=O)O)c2ccccc12 [Compound 7] &field=pIC50 returns < 4.52

Lab note: measured pIC50 of CCCCCCc1ccc2ccn(C(=O)CCCC(=O)O)c2c1 [Compound 31] was < 5.00

====

Entries and their pIC50
target: OXE receptor (Homo sapiens, UniProt Q8TDS5); assay: 5-oxo-ETE-induced calcium mobilization in human granulocytes; type: cell-based; design: Human granulocytes 95% neutrophils) are prepared from whole blood; endogenous in cells; host or cells: human blood granulocytes (>=95% neutrophils); settings: Table 7; alkyl variation; readout not given, values match Ca^++; read-out: IC50
The read-out pIC50 is expressed as -log10 of concentration in moles per litre.

Example compounds with recorded pIC50:
# compound, result_type, measured_value
rows = [
    ("CCCCCCCc1cc2ccccc2n1C(=O)CC(C)CC(=O)O (stereo not shown)", "pIC50", 6.92),
    ("CCCC/C=C/c1ccc2c(ccn2C(=O)CC(C)CC(=O)O)c1 (stereo not shown)", "pIC50", 5.00),
    ("CCCCCCc1cc2ccccc2n1C(=O)CC(C)CC(=O)O (stereo not shown)", "pIC50", 7.05),
]

Next compound, please.
Per the records, this compound ( CCCCCc1cc2ccccc2n1C(=O)CC(C)CC(=O)O (stereo not shown) ) has pIC50 equal to 7.00

====

// IC50 lookup, one value per entry
target: OXE receptor (Homo sapiens); experiment: 5-oxo-ETE-induced calcium mobilization in human granulocytes; format: cell-based; set-up: Human granulocytes 95% neutrophils) are prepared from whole blood; endogenous in cells; host or cells: human blood granulocytes (>=95% neutrophils); settings: Table 4; R1/R2/R3 variation; readout not given; read-out: IC50
Answer format: numeric, µM implied, no suffix.

# smiles_string, result_type, measured_value
rows = [
    ("CCCCCCc1[nH]c2ccccc2c1C(=O)CCCC(=O)O", "IC50", 11),
]

# evaluate next
For reference, reported IC50 for CCCCCCc1c(C(=O)CCCC(=O)O)c2ccccc2n1C stands at 3.7

====

molecular target: OXE receptor (Homo sapiens); test: 5-oxo-ETE-induced calcium mobilization in human granulocytes; type: cell-based; parameters: Human granulocytes 95% neutrophils) are prepared from whole blood; endogenous in cells; host or cells: human blood granulocytes (>=95% neutrophils); conditions: Table 5; alkyl chain variation; readout not given, values match Ca^++; read-out: IC50
result_type: pIC50
Here pIC50 is given on a logarithmic scale as minus log10 of the concentration in mol/L.

These solved cases illustrate the format of a correct answer.
# compound, system_tested, result_type, measured_value
measured = [
    ("CCCCCCc1cc2ccccc2n1C(=O)CCCC(=O)O [Compound 1]", "OXE receptor (Homo sapiens)", "pIC50", 6.00),
    ("CCCCCc1cc2ccccc2n1C(=O)CCCC(=O)O [Compound 18]", "OXE receptor (Homo sapiens)", "pIC50", 5.96),
    ("CCCCCCCc1cc2ccccc2n1C(=O)CCCC(=O)O [Compound 33]", "OXE receptor (Homo sapiens)", "pIC50", 5.82),
    ("CCCCCCCCc1cc2ccccc2n1C(=O)CCCC(=O)O [Compound 25]", "OXE receptor (Homo sapiens)", "pIC50", 5.57),
    ("CCCC/C=C/c1cc2ccccc2n1C(=O)CCCC(=O)O [Compound 12]", "OXE receptor (Homo sapiens)", "pIC50", 5.48),
]

Given item CCCCCCc1cc2cc(Cl)ccc2n1C(=O)CCCC(=O)O [Compound 29] , the value recorded as its pIC50 is 5.85

Kindly note the recorded pIC50 for CCCCCCCCC/C=C\c1cc2ccccc2n1C(=O)CCCC(=O)O [Compound 20] , which is 4.70

# compound CCCCCCCCCCCc1cc2ccccc2n1C(=O)CCCC(=O)O [Compound 23] ; its pIC50 = 4.60

====

target: UniProtKB Q8TDS5; assay: 5-oxo-ETE-induced actin polymerization (F-actin levels) in eosinophils; format: cell-based; set-up: endogenous in cells; conditions: 5-oxo-ETE 10 nM, Table 2
As shown below, each of these compounds has a reported IC50 value.
Answer with a number only, understood to be in µM.

# compound, result_type, measured_value
rows = [
    ("CCCCCCc1c(C(=O)CC(C)CC(=O)O)c2cc(Cl)ccc2n1C (racemic) [Compound 60]", "IC50", 0.072),
]

Next compound, IC50 to be filled in.
For this compound ( CCCCCCc1cc2ccccc2n1C(=O)CC(C)CC(=O)O (centres unmarked) [Compound 2] ), measured IC50 is 0.46
